Entries and their self-cleavage values follow.
B1: Twister Ribozyme (parent)
chain: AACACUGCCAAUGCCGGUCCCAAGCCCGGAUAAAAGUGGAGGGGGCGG

# Variants of: B1
# measurement.notes: self-cleavage, relative activity (ratio to wild type); higher = more cleavage; co-transcriptional
reported.metric: self-cleavage

| entry.sequence | reported.value |
| --- | --- |
| AACAUUGCCAAUGCCGGACCCAAGCCCGGAUAAAAGUGGAGGGGGCGG [C5U U18A] | 0.186 |
| AACACUGCCAAUGCCGGUCCCAAGCCCGGUUAAAAUUGGAGGGGGCGG [A30U G36U] | 0.294 |
| AACACUGCCAAUGGCGGUCCCAAGCCCGGAUAAAAGCGGAGGGGGCGG [C14G U37C] | 0.0984 |
| AACACUGCCAAUGCCGGUCCCAAGCACUGAUAAAAGUGGAGGGGGCGG [C26A G28U] | 0.114 |
| AACACUGCCAAUGCUGGUCCCAAGCCCGGAUAAAAGUGGAGGGGGUGG [C15U C46U] | 0.917 |
| AACACUGCCAAUGCCCGUCCCAAGCCCGGAUACAAGUGGAGGGGGCGG [G16C A33C] | 0.427 |
| AACAGUGCCAAUGCCGGUCCCAAGCCCGGAUAAAAGGGGAGGGGGCGG [C5G U37G] | 0.519 |
| CACACUGCCAAUGCCGGUCCCAAGCCCGGAUAAAAGUGGGGGGGGCGG [A1C A40G] | 0.117 |
| AACACUUCCAAUGCCGAUCCCAAGCCCGGAUAAAAGUGGAGGGGGCGG [G7U G17A] | 0.0885 |
| AACACUGCCAAUGCCGGUCCCAAGCCCGGAUAAAAGCGUAGGGGGCGG [U37C G39U] | 0.11 |
| AACAGUGCCAAUGCCGGUCCCAAGCCCGGAUAAAAGUGGAGGGGGCUG [C5G G47U] | 0.521 |
| AACACUGCCAAUGCCGGUCCCAAGUCCGGAUAAAAGUGGAGGGGGAGG [C25U C46A] | 0.686 |
| AACACUGCCAUUGCCGGUCCCAAGCCCGGAUAAACGUGGAGGGGGCGG [A11U A35C] | 0.997 |
| AACACUGCGAAUGCCGGUCCCAAGCCCGGAUGAAAGUGGAGGGGGCGG [C9G A32G] | 0.731 |
| AUCACUGCCAAUGACGGUCCCAAGCCCGGAUAAAAGUGGAGGGGGCGG [A2U C14A] | 0.531 |
| AACACUGCCAAUGCCGGUCCCAAGCCCGUAGAAAAGUGGAGGGGGCGG [G29U U31G] | 0.92 |
| AACACUGCCAAUGCCGGUCCCAGGUCCGGAUAAAAGUGGAGGGGGCGG [A23G C25U] | 0.132 |
| AACACUGCCAAUGCCGGUCCGAAGCCCGGAUAAAAGUGGAGGGGCCGG [C21G G45C] | 0.0674 |
| AACACUGCCAAUGCCGGUCACAAGCCCGGACAAAAGUGGAGGGGGCGG [C20A U31C] | 0.117 |
| AACACUGCCAAUGCCGGUCCCAAGCCCGGAUAAGAGUGGAGGUGGCGG [A34G G43U] | 0.133 |
| AACACUGCCAAUCCCGGUCCCAAGCCCGGAUAAAAGUGUAGGGGGCGG [G13C G39U] | 0.108 |
| AGCACUGCCAAUGCCGGUCCCAAGCUCGGAUAAAAGUGGAGGGGGCGG [A2G C26U] | 0.08 |
